melting point values for the compounds below.
metric.name: melting point

| compound | metric.name | value.reported |
| --- | --- | --- |
| Cn1nc(-c2ccc(F)cc2)c(-c2ccncc2)c1NC(=O)Cc1ccccc1C(F)(F)F [Example 68] | melting point | 242.7 to 244.5 °C |
| CC(C)(C(=O)Nc1n[nH]c(-c2ccc(F)cc2)c1-c1ccncc1)c1ccccc1 [Example 33] | melting point | 239.1 to 241.5 °C |
| Cn1nc(-c2ccc(F)cc2)c(-c2ccncc2)c1NC(=O)Cc1ccc(OCc2ccccc2)cc1 [Example 70] | melting point | 147.8 to 150.1 °C |
| Cn1nc(-c2ccc(F)cc2)c(-c2ccncc2)c1NC(=O)Cc1c(F)ccc([N+](=O)[O-])c1Cl [Example 83] | melting point | 129.2 to 130.6 °C |
| COc1ccc(CC(=O)Nc2c(-c3ccncc3)c(-c3ccc(F)cc3)nn2C)cc1OC [Example 42] | melting point | 128.1 to 129.6 °C |
| COc1ccc(CC(=O)Nc2c(-c3ccncc3)c(-c3ccc(F)cc3)nn2C)cc1OC [Example 44] | melting point | 174.4 to 180.3 °C |
| O=C(Cc1ccccc1Cl)Nc1c(-c2ccncc2)c(-c2ccc(F)cc2)nn1-c1ccccc1 [Example 107] | melting point | 265.2 to 268 °C |
| C[C@H](NC(=O)OC(C)(C)C)C(=O)Nc1n[nH]c(-c2ccc(F)cc2)c1-c1ccncc1 [Example 86] | melting point | 223 to 224.7 °C |
| O=C(Cc1ccsc1)Nc1n[nH]c(-c2ccc(F)cc2)c1-c1ccncc1 [Example 28] | melting point | 279.6 to 282.9 °C (dec.) |
| Cn1nc(NC(=O)Cc2ccccc2)c(-c2ccncc2)c1-c1ccc(F)cc1 [Example 116] | melting point | 157.6 to 160.1 °C |
| O=C(Cc1ccc(C(F)(F)F)cc1)Nc1n[nH]c(-c2ccc(F)cc2)c1-c1ccncc1 [Example 8] | melting point | 282.1 to 288.4 °C |
| CCn1nc(-c2ccc(F)cc2)c(-c2ccncc2)c1NC(=O)Cc1ccccc1Cl [Example 98] | melting point | 226 to 232.3 °C |
| O=C(Nc1n[nH]c(-c2ccc(F)cc2)c1-c1ccncc1)c1ccccc1 [Example 13] | melting point | 270.5 to 276.1 °C |
| CN(C(=O)Cc1c(Cl)cccc1Cl)c1c(-c2ccncc2)c(-c2ccc(F)cc2)nn1C [Example 122] | melting point | 205.7 to 207.8 °C |
| Cn1nc(-c2ccc(F)c(Cl)c2)c(-c2ccncc2)c1NC(=O)Cc1c(F)c(F)c(F)c(F)c1F [Example 114] | melting point | 194.7 to 196 °C |
| Cn1nc(-c2ccc(Cl)c(Cl)c2)c(-c2ccncc2)c1NC(=O)Cc1ccccc1 [Example 111] | melting point | 198.4 to 199.1 °C |
| COCC(=O)Nc1n[nH]c(-c2ccc(F)cc2)c1-c1ccncc1 [Example 15] | melting point | 246 to 248 °C |

====

| compound | melting point |
| --- | --- |
| CCCn1nc(-c2ccc(F)cc2)c(-c2ccncc2)c1N(C)C(=O)Cc1ccccc1 [Example 128] | 124.5 to 127.3 °C |
| Cn1nc(-c2ccc(F)cc2)c(-c2ccncc2)c1NC(=O)Cc1c(F)cccc1F [Example 46] | 239.9 to 242.5 °C |
| Cn1nc(-c2ccc(F)cc2)c(-c2ccncc2)c1NC(=O)Cc1cccc(C(F)(F)F)c1 [Example 72] | 193.4 to 195.8 °C |
| Cn1nc(-c2ccc3c(c2)OCO3)c(-c2ccncc2)c1NC(=O)Cc1ccccc1 [Example 109] | 127.5 to 132.1 °C |
| O=C(Cc1ccc([N+](=O)[O-])cc1)Nc1n[nH]c(-c2ccc(F)cc2)c1-c1ccncc1 [Example 27] | 299.3 to 302.3 °C |
| O=C(Cc1c(F)c(F)c(F)c(F)c1F)Nc1n[nH]c(-c2ccc(F)cc2)c1-c1ccncc1 [Example 31] | ≥ 325 °C |
| Cn1nc(NC(=O)Cc2ccccc2Cl)c(-c2ccncc2)c1-c1ccc(F)cc1 [Example 118] | 193.8 to 195.3 °C |
| Cn1nc(-c2ccc(F)cc2)c(-c2ccncc2)c1NC(=O)Cc1cccc(N)c1 [Example 94] | 110.6 to 119 °C |
| Cn1nc(-c2ccc(F)cc2)c(-c2ccncc2)c1NC(=O)Cc1cccc(F)c1F [Example 49] | 181.3 to 182.5 °C |
| Cn1nc(-c2ccc(F)cc2)c(-c2ccncc2)c1NC(=O)Cc1cccc(Br)c1 [Example 58] | 78.5 to 80.2 °C |
| Cn1nc(-c2ccc(F)cc2)c(-c2ccncc2)c1NC(=O)Cc1ccc2c(c1)OCO2 [Example 43] | 113.6 to 116.5 °C |
| CC(C(=O)Nc1n[nH]c(-c2ccc(F)cc2)c1-c1ccncc1)c1ccccc1 (stereo not shown) [Example 5] | 240.6 to 241 °C |
| Cn1nc(-c2ccc(F)cc2)c(-c2ccncc2)c1NC(=O)Cc1ccccc1Br [Example 57] | 223.8 to 227.6 °C |
| CCC(=O)Nc1n[nH]c(-c2ccc(F)cc2)c1-c1ccncc1 [Example 17] | 272 to 275 °C |
| CC(C)[C@H](N)C(=O)Nc1n[nH]c(-c2ccc(F)cc2)c1-c1ccncc1.Cl | 205.3 to 206.4 °C |
| Cn1nc(-c2ccc(F)cc2)c(-c2ccncc2)c1NC(=O)Cc1ccccc1 [Example 117] | 164.9 to 166.5 °C |
| CN(C(=O)Cc1ccc(F)cc1)c1c(-c2ccncc2)c(-c2ccc(F)cc2)nn1C [Example 125] | 124.1 to 125.6 °C |
| O=C(Cc1ccc(Cl)cc1)Nc1n[nH]c(-c2ccc(F)cc2)c1-c1ccncc1 [Example 6] | 273.2 to 277.3 °C |
| O=C(Cc1ccccc1[N+](=O)[O-])Nc1n[nH]c(-c2ccc(F)cc2)c1-c1ccncc1 [Example 92] | 242.4 to 244.1 °C |
| C[C@H](NC(=O)OCc1ccccc1)C(=O)Nc1n[nH]c(-c2ccc(F)cc2)c1-c1ccncc1 [Example 84] | 190 to 191.3 °C |
| Cn1nc(-c2ccc(F)cc2)c(-c2ccncc2)c1NC(=O)Cc1cc(F)ccc1F [Example 35] | 207 to 208 °C |
| Cn1nc(-c2ccc(F)cc2)c(-c2ccncc2)c1NC(=O)Cc1ccc(Cl)cc1Cl [Example 41] | 224.3 to 225.4 °C |
| COc1cc(CC(=O)Nc2c(-c3ccncc3)c(-c3ccc(F)cc3)nn2C)cc(OC)c1OC [Example 54] | 178.1 to 180.4 °C |
| C[C@H](N)C(=O)Nc1n[nH]c(-c2ccc(F)cc2)c1-c1ccncc1.Cl | 210.2 to 211.5 °C |
| CC(C)[C@H](NC(=O)OC(C)(C)C)C(=O)Nc1n[nH]c(-c2ccc(F)cc2)c1-c1ccncc1 [Example 87] | 217.1 to 217.6 °C |
| CN(C(=O)Cc1ccccc1)c1c(-c2ccncc2)c(-c2ccc(F)cc2)nn1C [Example 120] | 168.5 to 171.2 °C |
| Cn1nc(-c2ccc(F)cc2)c(-c2ccncc2)c1NC(=O)Nc1ccccc1 [Example 136] | 287.5 to 290.2 °C |
| COc1ccc(CC(=O)Nc2n[nH]c(-c3ccc(F)cc3)c2-c2ccncc2)cc1 [Example 3] | 265.1 to 266.2 °C |
| COc1ccccc1CC(=O)Nc1c(-c2ccncc2)c(-c2ccc(F)cc2)nn1CCO [Example 104] | 200.6 to 204.2 °C |
| Cn1nc(-c2ccc(F)cc2)c(-c2ccncc2)c1NC(=O)Cc1cccnc1 [Example 77] | 220 to 220.9 °C |
| O=C(Cc1ccccc1)Nc1c(-c2ccncc2)c(-c2ccc(F)cc2)nn1CCO [Example 105] | 180.3 to 183.6 °C |
| Cn1nc(-c2ccc(F)cc2)c(-c2ccncc2)c1NC(=O)Cc1ccncc1 [Example 78] | 141.3 to 143.4 °C |
| CSc1ccc(CC(=O)Nc2c(-c3ccncc3)c(-c3ccc(F)cc3)nn2C)cc1 [Example 71] | 182.5 to 184.7 °C |
| Cn1nc(-c2ccc(F)cc2)c(-c2ccncc2)c1NC(=O)Cc1ccc(O)cc1 [Example 95] | 127.1 to 128.6 °C |
